Source: patent US10189794B2

# Test system: Huh7 cells
# ASSAY_DETAILS: Cell proliferation, Huh7 (CellTiter Glo)
# Format: cell-based
# PROTOCOL_CONDITIONS: Homo sapiens, Huh-7; Huh7; 120 hr; read-out: Cell Proliferation GI50 (nM) HUH

| COMPOUND | TEST_TARGET | GI50 |
| --- | --- | --- |
| C=CC(=O)NC1CCCCC1Nc1ncc2c(n1)N(CCF)C(=O)N(c1cc(OC)cc(OC)c1Cl)C2 (racemic) [I-111] | Huh7 cells | > 1000 nM |
| C=CC(=O)NC1CN(C)CC1Nc1ncc2c(n1)N(C)C(=O)N(c1c(Cl)c(OC)cc(OC)c1Cl)C2 (racemic) [I-138] | Huh7 cells | > 1000 nM |
| C=CC(=O)Nc1ccccc1Nc1ncc2c(n1)N(Cc1ccccc1)C(=O)N(c1c(Cl)c(OC)cc(OC)c1Cl)C2 [I-3] | Huh7 cells | < 100 nM |
| C=CC(=O)Nc1ccccc1Nc1ncc2c(n1)N(C)C(=O)N(c1c(Cl)c(OC)cc(OC)c1Cl)C2 [I-2] | Huh7 cells | 101 to 500 nM |
| C=CC(=O)NCc1ccccc1Nc1ncc2c(n1)N(Cc1cccc(NC(=O)CC)c1)C(=O)N(c1c(Cl)c(OC)cc(OC)c1Cl)C2 [I-179] | Huh7 cells | 101 to 500 nM |
